TARGET UNDER TEST: Perforin-1 (Homo sapiens) (UniProt P14222)
Sequence (whole entry): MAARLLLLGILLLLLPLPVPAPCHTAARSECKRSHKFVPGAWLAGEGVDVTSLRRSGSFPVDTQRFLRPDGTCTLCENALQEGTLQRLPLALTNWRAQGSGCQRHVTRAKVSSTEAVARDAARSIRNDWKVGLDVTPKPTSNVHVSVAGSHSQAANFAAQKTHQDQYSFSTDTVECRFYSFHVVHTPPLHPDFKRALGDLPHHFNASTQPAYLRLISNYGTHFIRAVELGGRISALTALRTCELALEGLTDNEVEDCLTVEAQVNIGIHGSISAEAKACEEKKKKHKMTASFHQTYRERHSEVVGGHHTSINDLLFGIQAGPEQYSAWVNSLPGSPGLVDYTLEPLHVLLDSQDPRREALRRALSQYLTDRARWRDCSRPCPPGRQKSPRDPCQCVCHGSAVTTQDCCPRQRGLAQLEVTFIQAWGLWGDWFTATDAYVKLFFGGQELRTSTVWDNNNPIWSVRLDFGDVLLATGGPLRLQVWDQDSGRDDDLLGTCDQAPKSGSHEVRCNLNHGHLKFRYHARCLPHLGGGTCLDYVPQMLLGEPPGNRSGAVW
PROTOCOL NOTES: Inhibition of perforin released from human KHYG-1 NK cells assessed as inhibition of perforin-mediated lysis of human K562 cells at 20 uM by [51Cr] release assay in presence of 10% mouse serum
Type: cell-based
# inhibition per record follows
Include the unit right after the number.

Completed entries (count: 4):
# LINE NOTATION, TARGET UNDER TEST, inhibition
records = [
    ("O=C1NC(=S)N/C1=C/c1ccc(-c2ccc3c(c2)COC3=O)cn1", "Perforin-1 (Homo sapiens) (UniProt P14222)", "20%"),
    ("O=C1NC(=S)N/C1=C/c1ccc2ccc(-c3ccc4c(c3)COC4=O)cc2n1", "Perforin-1 (Homo sapiens) (UniProt P14222)", "38%"),
    ("O=C1NC(=S)N/C1=C/c1cc2cc(-c3ccc4c(c3)COC4=O)ccc2[nH]1", "Perforin-1 (Homo sapiens) (UniProt P14222)", "83%"),
    ("O=C1NC(=O)/C(=C\\c2ccc(-c3ccc4c(c3)COC4=O)s2)N1", "Perforin-1 (Homo sapiens) (UniProt P14222)", "64%"),
]

Bench note: what inhibition did "O=C1NC(=S)N/C1=C/c1cc(-c2ccc3c(c2)COC3=O)cs1" show?
42%

====

PROTOCOL NOTES: Cytotoxicity against human KHYG-1 NK cells assessed as cell viability at 20 uM after 18 to 24 hrs by trypan blue assay
Type: cell-based
ASSAY SETUP: read-out: Activity
# viability at 20 µM per record follows
Use % as the unit, but write only the number.

Completed entries (count: 10):
# LINE NOTATION, viability at 20 µM (%)
measured = [
    ("O=C1NC(=O)/C(=C\\c2ccc(-c3ccc4c(c3)COC4=O)s2)N1", 91.5),
    ("O=C1NC(=S)N/C1=C/c1ccc2cc(-c3ccc4c(c3)COC4=O)ccc2n1", 48.5),
    ("O=C1NC(=S)N/C1=C/c1cc2ccc(-c3ccc4c(c3)COC4=O)cc2[nH]1", 10),
    ("O=C1NC(=S)N/C1=C/c1cc2cc(-c3ccc4c(c3)COC4=O)ccc2[nH]1", 23.2),
    ("O=C1NC(=O)C(=Cc2ccc(-c3ccc4c(c3)COC4=O)s2)C(=O)N1", 77.6),
    ("O=C1NC(=S)N/C1=C/c1cc2cc(-c3ccc4c(c3)COC4=O)ccc2o1", 29.9),
    ("O=C1NC(=S)N/C1=C/c1cc2ccc(-c3ccc4c(c3)COC4=O)cc2s1", 19.7),
    ("O=C1NC(=S)N/C1=C/c1csc(-c2ccc3c(c2)COC3=O)n1", 25),
    ("O=C1NC(=S)N/C1=C/c1ccc(-c2ccc3c(c2)COC3=O)s1", 88),
    ("O=C1NC(=S)N/C1=C/c1cc2cc(-c3ccc4c(c3)COC4=O)ccc2s1", 27),
]

Bench note: what viability at 20 µM did "O=C1NC(=S)N/C1=C/c1cc(-c2ccc3c(c2)COC3=O)ns1" show?
57

Bench note: what viability at 20 µM did "O=C1NC(=S)NC(=O)C1=Cc1ccc(-c2ccc3c(c2)COC3=O)s1" show?
38
